Provenance of the data: patent US20030091584A1

# TEST SYSTEM: T1, RSV F glycoprotein (NUF4) (respiratory syncytial virus)
# T1 chain 1: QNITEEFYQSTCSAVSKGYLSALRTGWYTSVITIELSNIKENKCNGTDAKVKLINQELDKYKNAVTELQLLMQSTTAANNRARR
# T1 chain 2: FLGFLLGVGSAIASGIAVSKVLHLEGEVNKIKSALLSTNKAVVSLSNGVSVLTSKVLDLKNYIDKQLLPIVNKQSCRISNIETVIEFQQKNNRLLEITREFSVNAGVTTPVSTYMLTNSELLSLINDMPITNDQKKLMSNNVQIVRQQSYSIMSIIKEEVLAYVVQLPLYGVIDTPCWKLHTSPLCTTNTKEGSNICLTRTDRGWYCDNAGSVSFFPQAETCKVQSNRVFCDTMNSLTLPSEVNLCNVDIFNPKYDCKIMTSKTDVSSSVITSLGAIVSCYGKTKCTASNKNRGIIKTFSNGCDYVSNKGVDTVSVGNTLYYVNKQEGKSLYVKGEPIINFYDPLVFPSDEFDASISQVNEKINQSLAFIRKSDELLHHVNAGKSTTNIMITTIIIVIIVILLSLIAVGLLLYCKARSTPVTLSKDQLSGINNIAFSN
# EXPERIMENT SUMMARY: BIAcore, mAb vs NUF4 (2:1)
MEASURED QUANTITY: number in parentheses after KD (fold against SYNAGIS = 1)

Below, each entry is followed by its recorded number in parentheses after KD (fold against SYNAGIS = 1) result.
BINDER	EXPERIMENTAL RESULT
A4B4 (monoclonal antibody) (antibody, V domains shown, mAb; also called A4B4/A4B4 (HC/LC)) VH: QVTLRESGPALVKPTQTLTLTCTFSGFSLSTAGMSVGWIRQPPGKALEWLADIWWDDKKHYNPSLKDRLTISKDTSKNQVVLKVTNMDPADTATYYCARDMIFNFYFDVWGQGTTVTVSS VL: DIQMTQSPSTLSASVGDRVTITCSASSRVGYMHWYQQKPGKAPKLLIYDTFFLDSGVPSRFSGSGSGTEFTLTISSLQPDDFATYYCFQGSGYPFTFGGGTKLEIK	156 fold
P12f4 (monoclonal antibody) (antibody, V domains shown, mAb with framework and constant regions of SYNAGIS) VH: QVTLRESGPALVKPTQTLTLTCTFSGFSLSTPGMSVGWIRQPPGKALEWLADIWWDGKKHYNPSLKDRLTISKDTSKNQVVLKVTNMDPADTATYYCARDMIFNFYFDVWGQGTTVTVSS VL: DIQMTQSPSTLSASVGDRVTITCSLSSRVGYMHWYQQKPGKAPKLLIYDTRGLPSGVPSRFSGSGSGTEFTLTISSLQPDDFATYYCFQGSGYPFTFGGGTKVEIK	134 fold

Continue with the next binder.
Query (binder): P11d4 (monoclonal antibody) (antibody, V domains shown, mAb with framework and constant regions of SYNAGIS) VH: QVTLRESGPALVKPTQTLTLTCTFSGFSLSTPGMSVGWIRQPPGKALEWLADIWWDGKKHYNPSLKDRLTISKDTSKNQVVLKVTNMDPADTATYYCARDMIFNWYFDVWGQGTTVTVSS VL: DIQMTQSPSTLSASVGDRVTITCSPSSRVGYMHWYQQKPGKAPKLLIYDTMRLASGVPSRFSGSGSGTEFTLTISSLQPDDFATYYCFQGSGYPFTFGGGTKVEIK ; field requested: number in parentheses after KD (fold against SYNAGIS = 1)
36 fold
